The following binders are shown together with reported Affinity ELISA CPE mutant ratio (1:9, pH 6.0/7.4) values.
Measurement target: Axl (UniProt P30530)
Sequence (P30530 26-451 limits assumed): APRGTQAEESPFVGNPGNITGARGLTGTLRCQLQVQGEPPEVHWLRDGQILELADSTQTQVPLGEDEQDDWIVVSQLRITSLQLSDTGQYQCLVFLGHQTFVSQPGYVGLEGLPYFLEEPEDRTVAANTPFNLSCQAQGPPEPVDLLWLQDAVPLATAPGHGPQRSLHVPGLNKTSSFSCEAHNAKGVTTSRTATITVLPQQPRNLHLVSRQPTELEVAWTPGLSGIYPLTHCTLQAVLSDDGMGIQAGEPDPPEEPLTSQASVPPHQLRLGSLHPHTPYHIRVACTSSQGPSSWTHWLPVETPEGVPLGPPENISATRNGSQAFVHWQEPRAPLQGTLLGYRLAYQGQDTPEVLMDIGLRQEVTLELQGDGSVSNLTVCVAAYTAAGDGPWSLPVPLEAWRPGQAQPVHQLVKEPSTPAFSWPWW
Procedure details: ELISA, 1:9 dilution
The reply should be a number, written without any unit.

1) HC-Y104E (antibody, V domains shown) VH: EVQLVQSGAEVKKPGATVKISCKVSGYSFTGHTMNWIRQPPGKGLEWIGLIKPSNGGTSYNQKFKGRVTISADKSISTAYLQWSSLKASDTAMYYCAHGHYESEFAMDYWGQGTLVTVSS VL: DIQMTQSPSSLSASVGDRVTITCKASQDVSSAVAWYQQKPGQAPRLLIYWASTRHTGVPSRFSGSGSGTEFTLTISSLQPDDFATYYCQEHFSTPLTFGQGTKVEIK | 1.8

q: Would you mind telling me what Affinity ELISA CPE mutant ratio (1:9, pH 6.0/7.4) value was observed for LC-A034D (antibody, V domains shown) VH: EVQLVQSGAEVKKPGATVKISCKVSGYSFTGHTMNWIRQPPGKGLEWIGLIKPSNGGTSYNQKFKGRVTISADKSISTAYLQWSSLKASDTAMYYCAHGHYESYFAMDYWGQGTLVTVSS VL: DIQMTQSPSSLSASVGDRVTITCKASQDVSSAVDWYQQKPGQAPRLLIYWASTRHTGVPSRFSGSGSGTEFTLTISSLQPDDFATYYCQEHFSTPLTFGQGTKVEIK ?
a: 2.6
